Molecular target: MtCA3 (Mycobacterium tuberculosis)
Sequence (P96878 550-764 limits assumed): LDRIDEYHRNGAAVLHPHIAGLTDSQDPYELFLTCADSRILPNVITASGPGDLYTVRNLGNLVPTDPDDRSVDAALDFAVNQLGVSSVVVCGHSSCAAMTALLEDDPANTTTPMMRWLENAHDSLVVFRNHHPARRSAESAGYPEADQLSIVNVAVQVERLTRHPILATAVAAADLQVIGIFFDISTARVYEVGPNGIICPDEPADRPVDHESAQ
Yes if Ki is below 0.04 µM. No if not; exact matches included in No.

Consider the following illustrative entries.
> print(dat)
                  substance.smiles  label.value
1     O=C1Nc2c(Cl)cccc2S(=O)(=O)N1           No
2  CN1C(=O)NS(=O)(=O)c2cc(Cl)ccc21           No

*Q* Consider `O=C1Nc2ccc(O)cc2S(=O)(=O)N1` . Does its Ki lie strictly below 0.04 µM?
*A* No

*Q* Given the entry `Cc1ccc(C)c2c1NC(=O)NS2(=O)=O` , would its reported Ki be below 0.04 µM?
*A* No

*Q* Could you please tell me whether Ki recorded for `O=C1Nc2ccc(C(=O)O)cc2S(=O)(=O)N1` is less than 0.04 µM?
*A* No

*Q* For `O=C1Nc2ccc(Br)cc2S(=O)(=O)N1` , is the recorded Ki below the cut-off of 0.04 µM?
*A* No

*Q* Is Ki of `O=C1Nc2c(ccc3ccccc23)S(=O)(=O)N1` strictly below 0.04 µM?
*A* No

*Q* Quick check: does `COc1ccc2c(c1)S(=O)(=O)NC(=O)N2` have Ki under 0.04 µM?
*A* No

* * *

The following compounds are listed with their measured Selectivity Index (SI) hCA II/MtCA3 values.
Biological target: MtCA3 (Mycobacterium tuberculosis)
Experiment: biochemical
Conditions: ratio of Ki values
Answer using only a numeral; do not append any unit.

> print(dat)
                               compound  quantitative.result
1         O=C1Nc2ccccc2S(=O)(=O)N1 [2a]                  5.2
2    Cc1ccc2c(c1)S(=O)(=O)NC(=O)N2 [2c]                 47.1
3        Cc1cccc2c1NC(=O)NS2(=O)=O [2b]                  6.8
4  CN1C(=O)NS(=O)(=O)c2cc(Cl)ccc21 [2p]                 50.8
5     O=C1Nc2c(Br)cccc2S(=O)(=O)N1 [2k]                  6.4

*Q* Selectivity Index (SI) hCA II/MtCA3 of Cc1cc(C)c2c(c1)NC(=O)NS2(=O)=O [2f] on MtCA3 (Mycobacterium tuberculosis)?
*A* 1.3

*Q* Request: Selectivity Index (SI) hCA II/MtCA3, test system MtCA3 (Mycobacterium tuberculosis), entry O=C1Nc2ccc(O)cc2S(=O)(=O)N1 [2t]
*A* 66.3

* * *

Record set of Ki for target or system MtCA2 (Mycobacterium tuberculosis).
Field: numeric (nM). Do not append units.

Examples from the recorded data:
> print(dat)
                   substance.smiles  quantitative.result
1  O=C1Nc2c(C(=O)O)cccc2S(=O)(=O)N1                  105
2       O=C1Nc2c(F)cccc2S(=O)(=O)N1                 62.9
3         Cc1cccc2c1NC(=O)NS2(=O)=O                 58.5
4   CN1C(=O)NS(=O)(=O)c2cc(Cl)ccc21                  135
5       O=C1Nc2ccc(O)cc2S(=O)(=O)N1                 58.4
6       CN1C(=O)NS(=O)(=O)c2ccccc21                 39.6

# next molecule below
*Q* Consider the molecule `O=C1Nc2ccccc2S(=O)(=O)N1` and give its measured Ki.
*A* 68.6

* * *

Target: MtCA1 (Mycobacterium tuberculosis)
Construct: made in house
Assay: biochemical
Conditions: stopped-flow CO2 hydrase assay, mean from three assays; read-out: Ki MtCA1
measurement_label: Ki (nM)
Express it in nM; write the number only.

Some molecules with recorded Ki:
> print(dat)
                   substance.smiles                       tested.system  quantitative.result
1  O=C1Nc2c(ccc3ccccc23)S(=O)(=O)N1  MtCA1 (Mycobacterium tuberculosis)                 1040
2       O=C1Nc2c(F)cccc2S(=O)(=O)N1  MtCA1 (Mycobacterium tuberculosis)                 1290
3         Cc1cccc2c1NC(=O)NS2(=O)=O  MtCA1 (Mycobacterium tuberculosis)                 1460
4      O=C1Nc2c(Br)cccc2S(=O)(=O)N1  MtCA1 (Mycobacterium tuberculosis)                  993
5      O=C1Nc2ccc(Cl)cc2S(=O)(=O)N1  MtCA1 (Mycobacterium tuberculosis)                 2460

Pending molecule:
*Q* Ki for `O=C1Nc2c(Cl)cccc2S(=O)(=O)N1` ?
*A* 1500

* * *

Biological target: MtCA2 (Mycobacterium tuberculosis, UniProt P9WPJ9)
Construct: made in house
Sequence (P9WPJ9 whole entry, looked up): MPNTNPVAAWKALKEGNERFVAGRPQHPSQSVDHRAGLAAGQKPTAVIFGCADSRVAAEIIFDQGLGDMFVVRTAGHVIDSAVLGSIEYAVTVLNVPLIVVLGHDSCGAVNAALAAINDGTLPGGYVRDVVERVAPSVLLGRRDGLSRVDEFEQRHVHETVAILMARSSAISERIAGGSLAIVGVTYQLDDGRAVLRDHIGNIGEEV
Test: stopped-flow CO2 hydrase assay, MtCA2
Format: biochemical
Settings: ratio of Ki values
Below, each entry is listed with its recorded Selectivity Index (SI) hCA II/MtCA2.

*Q* Could you tell me which Selectivity Index (SI) hCA II/MtCA2 is on file for `O=C1NS(=O)(=O)c2cccc3c2N1CC3` ?
*A* 1.8

*Q* Using the record for `Cc1ccc2c(c1)S(=O)(=O)NC(=O)N2` , report its Selectivity Index (SI) hCA II/MtCA2.
*A* 21.1

*Q* Given the compound `CN1C(=O)NS(=O)(=O)c2ccccc21` , what is its reported Selectivity Index (SI) hCA II/MtCA2?
*A* 21.5

* * *

Molecular target: MtCA1 (Mycobacterium tuberculosis, UniProt P9WPJ7)
Construct: made in house
Sequence (P9WPJ7 whole entry): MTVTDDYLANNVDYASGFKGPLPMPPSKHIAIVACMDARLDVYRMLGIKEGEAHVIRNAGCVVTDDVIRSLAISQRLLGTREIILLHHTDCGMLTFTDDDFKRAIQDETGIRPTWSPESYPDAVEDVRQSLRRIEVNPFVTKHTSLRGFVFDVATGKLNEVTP
Assay: biochemical
Details: ratio of Ki values
Each entry gets condition not met if its Selectivity Index (SI) hCA II/MtCA1 stays under 0.7, and condition met if its Selectivity Index (SI) hCA II/MtCA1 is 0.7 or above.

Observe how each entry below is paired with its result.
> print(dat)
                              compound                             tested.system        label.value
1    O=C1Nc2c(Cl)cccc2S(=O)(=O)N1 [2i]  MtCA1 (Mycobacterium tuberculosis, UniProt P9WPJ7)  condition not met
2     CN1C(=O)NS(=O)(=O)c2ccccc21 [2o]  MtCA1 (Mycobacterium tuberculosis, UniProt P9WPJ7)      condition met
3  Cc1cc(C)c2c(c1)NC(=O)NS2(=O)=O [2f]  MtCA1 (Mycobacterium tuberculosis, UniProt P9WPJ7)  condition not met

*Q* Is Selectivity Index (SI) hCA II/MtCA1 for O=C1Nc2c(Br)cccc2S(=O)(=O)N1 [2k] at or above 0.7?
*A* condition not met

*Q* Check if Selectivity Index (SI) hCA II/MtCA1 >= 0.7 (inclusive). Item: O=C1Nc2ccc(C(=O)O)cc2S(=O)(=O)N1 [2s]
*A* condition met

*Q* Decide: Selectivity Index (SI) hCA II/MtCA1 of O=C1Nc2c(F)cccc2S(=O)(=O)N1 [2g] >= 0.7?
*A* condition not met

*Q* Has O=C1Nc2ccccc2S(=O)(=O)N1 [2a] a recorded Selectivity Index (SI) hCA II/MtCA1 greater than or equal to 0.7?
*A* condition not met

* * *

Molecular target: UniProtKB P96878
Assay: biochemical
Details: ratio of Ki values
measurement_label: Selectivity Index (SI) hCA II/MtCA3

Some solved cases for reference:
> print(dat)
                   substance.smiles                    measurement.label  result
1      O=C1Nc2c(Cl)cccc2S(=O)(=O)N1  Selectivity Index (SI) hCA II/MtCA3    15.5
2      Cc1ccc(C)c2c1NC(=O)NS2(=O)=O  Selectivity Index (SI) hCA II/MtCA3     1.4
3      O=C1NS(=O)(=O)c2cccc3c2N1CC3  Selectivity Index (SI) hCA II/MtCA3    13.9
4  O=C1Nc2c(C(=O)O)cccc2S(=O)(=O)N1  Selectivity Index (SI) hCA II/MtCA3    37.4
5      O=C1Nc2ccc(Br)cc2S(=O)(=O)N1  Selectivity Index (SI) hCA II/MtCA3    26.2

*Q* Give its Selectivity Index (SI) hCA II/MtCA3 value. Item: `COc1ccc2c(c1)S(=O)(=O)NC(=O)N2`
*A* 32.5

*Q* For `CN1C(=O)NS(=O)(=O)c2ccccc21` , what is its reported Selectivity Index (SI) hCA II/MtCA3?
*A* 26.2

*Q* Requested field: Selectivity Index (SI) hCA II/MtCA3. Item: `O=C1Nc2c(F)cccc2S(=O)(=O)N1`
*A* 8.6

*Q* Param item = `O=C1Nc2ccc(Cl)cc2S(=O)(=O)N1` ; retrieve measured Selectivity Index (SI) hCA II/MtCA3.
*A* 28.7

*Q* Given `O=C1Nc2c(ccc3ccccc23)S(=O)(=O)N1` , state its recorded Selectivity Index (SI) hCA II/MtCA3.
*A* 4.0

Each recorded value in this set is attributed to paper PMC10932284.
